- Target Under Test: human A2AAR (Homo sapiens)
- Construct: expressed in transfected cells; host or cells: HEK293 (membrane preparations)
- Sequence (P29274 whole entry): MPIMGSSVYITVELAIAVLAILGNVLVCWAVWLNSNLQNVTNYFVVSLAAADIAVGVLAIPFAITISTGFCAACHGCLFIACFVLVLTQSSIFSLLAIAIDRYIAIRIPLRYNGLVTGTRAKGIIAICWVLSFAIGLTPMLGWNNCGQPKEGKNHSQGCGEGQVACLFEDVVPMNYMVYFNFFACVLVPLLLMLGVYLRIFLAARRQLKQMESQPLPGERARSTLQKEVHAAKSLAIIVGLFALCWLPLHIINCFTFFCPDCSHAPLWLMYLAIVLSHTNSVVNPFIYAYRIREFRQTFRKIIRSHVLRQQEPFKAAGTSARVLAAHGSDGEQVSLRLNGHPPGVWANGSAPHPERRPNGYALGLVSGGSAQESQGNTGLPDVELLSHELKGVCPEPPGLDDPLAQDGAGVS
- Method Notes: Radioligand binding assay, displacement of [3H]ZM241385
- Protocol Conditions: displacement of [3H]ZM241385; means ± SEM from 2-4 independent experiments
Recorded pKi, one value per entry.
Just so you know, pKi here is -log10 of the concentration in molar units; reply with that number alone.

Completed entries (count: 4):
[[record]]
mol_smiles = "O=C(Nc1nc2ccccc2s1)C12CC3CC(CC1C3)C2"
target_under_test = "human A2AAR (Homo sapiens)"
parameter = "pKi"
measured_value = 5.71

[[record]]
mol_smiles = "CCC(CC)C(=O)Nc1nc2ccccc2s1"
target_under_test = "human A2AAR (Homo sapiens)"
parameter = "pKi"
measured_value = 5.53

[[record]]
mol_smiles = "CC(C)(C)C(=O)Nc1nc2cc(C#N)ccc2s1"
target_under_test = "human A2AAR (Homo sapiens)"
parameter = "pKi"
measured_value = 5.25

[[record]]
mol_smiles = "O=C(Nc1nc2ccccc2s1)C1CCCC1"
target_under_test = "human A2AAR (Homo sapiens)"
parameter = "pKi"
measured_value = 5.79


Query: Any idea what pKi was measured for `CC1(C(=O)Nc2nc3cc(C#N)ccc3s2)CCCC1` ?
Result: 5.75

Query: Any idea what pKi was measured for `CC(C)(C)C(=O)Nc1nc2ccccc2s1` ?
Result: 5.84

Query: Any idea what pKi was measured for `Cc1ccc2sc(NC(=O)C3(C)CCCC3)nc2c1` ?
Result: 6.25

Query: Any idea what pKi was measured for `CC(C)(C)C(=O)Nc1nc2cc(Br)ccc2s1` ?
Result: 6.13

Query: Any idea what pKi was measured for `COc1cccc2sc(NC(=O)C(C)(C)C)nc12` ?
Result: 6.70

Query: Any idea what pKi was measured for `CC1(C(=O)Nc2nc3ccccc3s2)CCCC1` ?
Result: 6.24

Query: Any idea what pKi was measured for `CC(C)(C)C(=O)Nc1nc2cc(Cl)ccc2s1` ?
Result: 5.89

Query: Any idea what pKi was measured for `CCC(=O)Nc1nc2ccccc2s1` ?
Result: 5.21

Query: Any idea what pKi was measured for `CC(C)C(=O)Nc1nc2ccccc2s1` ?
Result: 5.65
